pIC50 for assorted compounds
- TARGET_ENTITY: Replicase polyprotein 1ab (Severe acute respiratory syndrome coronavirus 2)
The scale used: pIC50 is minus the common logarithm of the concentration in molar units.

Worked set:
SMILES_STR: CN(C(=O)[C@H](Cc1ccccc1)NC(=O)OCc1ccccc1)N(C#N)Cc1cc(Cl)ccc1F
pIC50: 6.92

SMILES_STR: CN(C(=O)[C@H](Cc1ccccc1)NC(=O)COc1cccc(F)c1Br)N(C#N)Cc1ccc(Cl)cc1
pIC50: 5.99

The reported pIC50 value, Replicase polyprotein 1ab (Severe acute respiratory syndrome coronavirus 2), for `CN1C(=O)[C@H](CCc2ccccc2)NC(=O)COCCOc2ccc(F)cc2CN1C#N` reads 5.83

The reported pIC50 value, Replicase polyprotein 1ab (Severe acute respiratory syndrome coronavirus 2), for `CN(C(=O)[C@H](Cc1ccccc1)NC(=O)COc1ccc(F)cc1)N(C#N)Cc1ccc(Cl)cc1` reads 5.91

The reported pIC50 value, Replicase polyprotein 1ab (Severe acute respiratory syndrome coronavirus 2), for `CN(C(=O)[C@H](Cc1ccccc1)NC(=O)OCc1ccccc1)N(C#N)Cc1c(F)cc(Br)cc1F` reads 7.09

The reported pIC50 value, Replicase polyprotein 1ab (Severe acute respiratory syndrome coronavirus 2), for `CN(C(=O)[C@H](Cc1ccccc1)NC(=O)[C@@H](NC(=O)C(F)(F)F)C(C)(C)C)N(C#N)Cc1ccc(Cl)cc1` reads 7.48

The reported pIC50 value, Replicase polyprotein 1ab (Severe acute respiratory syndrome coronavirus 2), for `CN(C(=O)[C@H](Cc1ccccc1Cl)NC(=O)[C@@H](NC(=O)c1cccs1)C(C)(C)C)N(C#N)Cc1cccc(Cl)c1F` reads 7.59

The reported pIC50 value, Replicase polyprotein 1ab (Severe acute respiratory syndrome coronavirus 2), for `COc1ccc(NCC(=O)N[C@@H](Cc2ccccc2)C(=O)N(C)N(C#N)Cc2ccc(Cl)cc2)c(Cl)c1` reads 6.17

Ref: ChEMBL document CHEMBL5512668
